Cited source: patent US20250034197A1

biological target: ALPK1 (Homo sapiens); construct: endogenous in cells; host or cells: 293T cells; experiment: NF-κB luciferase reporter assay in 293T cells (cellular assay); format: cell-based
Sequence (Q96QP1 whole entry): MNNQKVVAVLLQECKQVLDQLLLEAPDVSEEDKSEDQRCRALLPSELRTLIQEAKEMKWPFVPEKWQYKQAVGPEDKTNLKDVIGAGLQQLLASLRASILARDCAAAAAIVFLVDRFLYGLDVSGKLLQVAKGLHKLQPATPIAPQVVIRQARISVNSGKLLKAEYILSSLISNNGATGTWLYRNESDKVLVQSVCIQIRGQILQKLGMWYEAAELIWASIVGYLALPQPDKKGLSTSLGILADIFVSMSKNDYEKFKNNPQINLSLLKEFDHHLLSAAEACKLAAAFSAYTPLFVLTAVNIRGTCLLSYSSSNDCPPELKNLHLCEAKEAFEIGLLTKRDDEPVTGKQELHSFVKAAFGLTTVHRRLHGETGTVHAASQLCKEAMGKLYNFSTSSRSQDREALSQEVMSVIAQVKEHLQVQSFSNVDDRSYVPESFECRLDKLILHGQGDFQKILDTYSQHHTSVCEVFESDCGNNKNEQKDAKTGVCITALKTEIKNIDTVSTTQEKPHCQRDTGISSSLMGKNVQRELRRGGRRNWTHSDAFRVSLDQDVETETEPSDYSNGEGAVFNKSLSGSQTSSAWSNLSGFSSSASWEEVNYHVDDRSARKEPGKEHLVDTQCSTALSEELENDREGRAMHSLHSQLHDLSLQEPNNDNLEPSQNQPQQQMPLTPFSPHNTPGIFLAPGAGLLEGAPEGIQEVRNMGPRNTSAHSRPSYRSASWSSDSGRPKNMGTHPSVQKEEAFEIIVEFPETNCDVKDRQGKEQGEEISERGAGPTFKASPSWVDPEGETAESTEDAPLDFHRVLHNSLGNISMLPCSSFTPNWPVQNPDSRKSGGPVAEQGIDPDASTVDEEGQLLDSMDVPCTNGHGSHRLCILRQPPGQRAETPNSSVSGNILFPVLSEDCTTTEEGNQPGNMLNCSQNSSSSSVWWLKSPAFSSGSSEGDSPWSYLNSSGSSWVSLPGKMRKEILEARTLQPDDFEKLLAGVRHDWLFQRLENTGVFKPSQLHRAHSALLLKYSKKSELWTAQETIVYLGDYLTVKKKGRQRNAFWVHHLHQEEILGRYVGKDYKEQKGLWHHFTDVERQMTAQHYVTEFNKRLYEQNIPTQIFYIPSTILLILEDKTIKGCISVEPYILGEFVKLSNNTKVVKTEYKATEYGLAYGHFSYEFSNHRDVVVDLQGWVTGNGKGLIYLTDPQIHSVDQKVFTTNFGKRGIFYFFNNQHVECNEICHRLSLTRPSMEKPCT
pEC50: −log10 of the molar value.
true means recorded pEC50 is 8 or above; false means it is below 8.

- COMPOUND: "C#C[C@]1(O)[C@H](O)[C@@H](COP(=O)(S)OP(=O)(O)OC2OC([C@H](COC(C)=O)OC(C)=O)C(OC(C)=O)C(OC(C)=O)C2OC(C)=O)O[C@H]1n1ccc(=O)[nH]c1=O (stereo partly drawn) [Example 26E]"
  CAT: "false"
- COMPOUND: "CN[C@@H]1[C@H](O)[C@@H](COP(=O)(S)OP(=O)(O)OC2OC([C@H](COC(C)=O)OC(C)=O)C(OC(C)=O)C(OC(C)=O)C2OC(C)=O)O[C@H]1n1cnc2c(N)ncnc21 (stereo partly drawn) [Example 34C]"
  CAT: "false"
- COMPOUND: "C=C[C@@]1(N=[N+]=[N-])[C@H](O)[C@@H](COP(=O)(S)OP(=O)(O)OC2OC([C@H](COC(C)=O)OC(C)=O)C(OC(C)=O)C(OC(C)=O)C2OC(C)=O)O[C@H]1n1ccc(=O)[nH]c1=O (stereo partly drawn) [Example 108C]"
  CAT: "false"
- COMPOUND: "CC(=O)OC[C@H](OC(C)=O)C1OC(OP(=O)(O)OP(=O)(S)OC[C@H]2O[C@@H](n3cnc4c(N)ncnc43)[C@H](N(C)C)[C@@H]2O)C(OC(C)=O)C(OC(C)=O)C1OC(C)=O (stereo partly drawn) [Example 35C]"
  CAT: "false"
- COMPOUND: "C=C[C@@]1(O)[C@H](O)[C@@H](COP(=O)(S)OP(=O)(O)OC2OC([C@H](COC(=O)C(C)C)OC(=O)C(C)C)C(OC(C)=O)C(OC(C)=O)C2OC(C)=O)O[C@H]1n1cnc2c(N)ncnc21 (stereo partly drawn) [Example 31M]"
  CAT: "true"

Now consider the entry below.
Reported pEC50 reaches at least 8 for C#C[C@@]1(OC)[C@H](O)[C@@H](COP(=O)(S)OP(=O)(O)OC2OC([C@H](COC(C)=O)OC(C)=O)C(OC(C)=O)C(OC(C)=O)C2OC(C)=O)O[C@H]1n1ccc(=O)[nH]c1=O (stereo partly drawn) [Example 95C] ?
false
